System: U2OS
Experiment: Multiplex assay against U2OS
Assay type: toxicity, cell-based
Conditions: human, 12 h, 1 µM, compound concentration 1 uM, replicate 1
For each record, write down the corresponding Population Tubulin-Different-Phenotype (%).
The reply should be a number in %, with the unit left off.

Exercise: Give Population Tubulin-Different-Phenotype (%) for the following compound: `CC(C)(C)c1ccc(CSc2cnn(C(C)(C)C)c(=O)c2Cl)cc1`
Solution: 2

Exercise: Identify the reported Population Tubulin-Different-Phenotype (%) for the following entry. `Nc1nc(CC(=O)Nc2ccc(CCNC[C@H](O)c3ccccc3)cc2)cs1`
Solution: 4

Exercise: Answer with the recorded Population Tubulin-Different-Phenotype (%) of COc1cc2nc(N3CCN(C(=O)c4ccco4)CC3)nc(N)c2cc1OC.Cl [PRAZOSIN HYDROCHLORIDE] only.
Solution: 1

Exercise: Fill in reported Population Tubulin-Different-Phenotype (%) for this entry: CN1CCN2c3ccccc3Cc3ccccc3C2C1.Cl (centres undefined) [MIANSERIN HYDROCHLORIDE]
Solution: 5

Exercise: Annotate the compound CN1C[C@H](C(=O)N[C@]2(C)O[C@@]3(O)[C@@H]4CCCN4C(=O)[C@H](Cc4ccccc4)N3C2=O)C[C@@H]2c3cccc4[nH]cc(c34)C[C@H]21.CS(=O)(=O)O [DIHYDROERGOTAMINE MESYLATE] with its measured Population Tubulin-Different-Phenotype (%).
Solution: 2

Exercise: Give recorded Population Tubulin-Different-Phenotype (%). `Cc1c(Cc2ccc3ccccc3n2)c2cc(F)ccc2n1CC(=O)O`
Solution: 1

Exercise: Supply recorded Population Tubulin-Different-Phenotype (%) for `Cc1cc(O)c(-c2ccc([C@@H](C)CN(C)C)cc2)c2c1[nH]c(=O)c1sccc12` here.
Solution: 12

Exercise: Give a short answer stating reported Population Tubulin-Different-Phenotype (%) for `S=C(NCCCc1c[nH]cn1)NCCCN(Cc1ccc(Cl)c(Cl)c1)c1ccc(Br)cn1` .
Solution: 6

Exercise: Could you please provide reported Population Tubulin-Different-Phenotype (%) for O=C(O)CCC/C=C\CC1C(O)CC(O)C1/C=C/C(O)COc1cccc(Cl)c1 (centres undefined) ? Thanks!
Solution: 1

Exercise: Item `COc1cc(C(=O)N2CC[C@@H](O)[C@@H](N)C2)cc2nc(-c3cc4ccccc4n3CC3CC3)n(C)c12.Cl` : provide Population Tubulin-Different-Phenotype (%)
Solution: 29

Exercise: Input `C[C@H](NC(=O)CNC(=O)c1cccc(Cl)c1)c1ccccc1` , output reported Population Tubulin-Different-Phenotype (%).
Solution: 2

Exercise: Note down Population Tubulin-Different-Phenotype (%) recorded for CCn1c(-c2nc3cc(C(=O)N4CCCC(N)C4)ccc3n2C)cc2ccccc21.Cl (centres undefined)
Solution: 2

Exercise: Look up and report measured Population Tubulin-Different-Phenotype (%) for this entry: `CC(C)C[C@H](CO)Nc1nc(S[C@@H](C)c2ccccc2)nc2nc(N)sc12`
Solution: 2

Exercise: Indicate its recorded Population Tubulin-Different-Phenotype (%); the compound in question is `N[C@](CC1c2ccccc2Oc2ccccc21)(C(=O)O)[C@H]1C[C@@H]1C(=O)O`
Solution: 4

Exercise: Give reported Population Tubulin-Different-Phenotype (%) value for `COc1ccc2c(c1OCc1ccccc1)C[C@@H](C(=O)O)N(C(=O)C(c1ccccc1)c1ccccc1)C2`
Solution: 1

Exercise: Tell me its Population Tubulin-Different-Phenotype (%) given `CC(C)(O)C(=O)N1CCN(c2ccc(C(F)(F)F)c(C3=C(c4c[nH]c5ccccc45)C(=O)NC3=O)c2)CC1` as the entry.
Solution: 3

Exercise: Find the measured Population Tubulin-Different-Phenotype (%) of COCCCN1CCC(NC(=O)c2cc(Cl)c(N)c3c2OCC3)CC1 [PRUCALOPRIDE] and report it.
Solution: 4

Exercise: Supply recorded Population Tubulin-Different-Phenotype (%) for `COCCn1c(C)c(C)s/c1=N\C(=O)C1C(C)(C)C1(C)C` here.
Solution: 3

Exercise: Report Population Tubulin-Different-Phenotype (%) for `COc1ccc2[nH]c(I)c(CCNC(C)=O)c2c1`
Solution: 1

Exercise: Supply recorded Population Tubulin-Different-Phenotype (%) for `Cc1nn(C)c2nc(NNC(=O)Nc3cc(Cl)nc(Cl)c3)cc(C(C)C)c12` here.
Solution: 2

Exercise: Tell me Population Tubulin-Different-Phenotype (%) reported for `CCCCCCNC(=O)Nc1ccc(S(=O)(=O)Nc2ccc(CCNC[C@H](O)COc3ccc(O)cc3)cc2)cc1`
Solution: 4

Exercise: State its Population Tubulin-Different-Phenotype (%): CCC(=O)OCC(=O)[C@@]1(OC(=O)CC)[C@@H](C)C[C@H]2[C@@H]3CCC4=CC(=O)C=C[C@]4(C)[C@@]3(Cl)[C@@H](O)C[C@@]21C [BECLOMETHASONE DIPROPIONATE]
Solution: 6

Exercise: Provide Population Tubulin-Different-Phenotype (%) value for the following compound: `C=CCN1C[C@H](C(=O)N(CCCN(C)C)C(=O)NCC)C[C@@H]2c3cccc4[nH]cc(c34)C[C@H]21`
Solution: 1

Exercise: Give the reported Population Tubulin-Different-Phenotype (%) for this compound. Cc1ccc(OCC(O)C(C)NC(C)C)c2c1CCC2.Cl (centres undefined)
Solution: 4

Exercise: Answer with reported Population Tubulin-Different-Phenotype (%) of `Cc1cc(NC(=O)NCCN2CCC(O)(Cc3ccccc3)CC2)c2ccccc2n1`
Solution: 1

Exercise: Give a short answer stating reported Population Tubulin-Different-Phenotype (%) for `OCCCNc1cc(-c2ccnc(Nc3cccc(Cl)c3)n2)ccn1` .
Solution: 4

Exercise: Assign Population Tubulin-Different-Phenotype (%) to the following record: `COc1c(Nc2ccc(S(C)(=O)=O)nc2C)ncnc1OC1CCN(C(=O)OC(C)C)CC1`
Solution: 5

Exercise: Return reported Population Tubulin-Different-Phenotype (%). Input compound: `CCc1nn2c(C)cc(C)nc2c1Cc1ccc(-c2nnc(C3CCNCC3)o2)cc1`
Solution: 11

Exercise: Tell me measured Population Tubulin-Different-Phenotype (%) for `Cc1sc2c(c1C)C(c1ccc(Cl)cc1)=N[C@H](CC(=O)OC(C)(C)C)c1nnc(C)n1-2` please.
Solution: 4

Exercise: Answer with the recorded Population Tubulin-Different-Phenotype (%) for the compound listed here: `COC(c1ccccc1)(c1ccccc1)[C@H](Oc1nc(C)cc(C)n1)C(=O)O`
Solution: 1

Exercise: // Input: `Cn1cc(C(=O)OCC2CCN(CCNS(C)(=O)=O)CC2)c2ccccc21` . Output its Population Tubulin-Different-Phenotype (%) only.
Solution: 5

Exercise: Identify Population Tubulin-Different-Phenotype (%) associated with the compound `CN1CCC(C(=O)c2cccc(NC(=O)c3c(F)cc(F)cc3F)n2)CC1`
Solution: 5

Exercise: Annotate the compound `COc1cc(Nc2ncc3c(n2)-c2ccc(Cl)cc2C(c2c(F)cccc2OC)=NC3)ccc1C(=O)O` with its measured Population Tubulin-Different-Phenotype (%).
Solution: 3

Exercise: Find the measured Population Tubulin-Different-Phenotype (%) of `CN1CCN(c2ccc(Nc3c4ccccc4nc4ccccc34)cc2)CC1.Cl.Cl.O` and report it.
Solution: 17

----------
Tested on: Fibroblast
Experiment: Multiplex assay against human fibroblast
Type: toxicity, cell-based
Conditions: 48 h, 10 µM, compound concentration 10 uM, replicate 2
Response field label: string, one of Criterion met (Total Cell Count strictly below 200) or Criterion not met.

Exercise: In plain terms, does `OCCCNc1cc(-c2ccnc(Nc3cccc(Cl)c3)n2)ccn1` come in under 200 for Total Cell Count?
Solution: Criterion met

Exercise: Say whether its Total Cell Count is strictly beneath 200. Entry: `S=C(NCCCc1c[nH]cn1)NCCCN(Cc1ccc(Cl)c(Cl)c1)c1ccc(Br)cn1`
Solution: Criterion not met

Exercise: I wonder whether `COc1cc(OC2CCN(C(C)=O)CC2)ccc1C(=O)N1CCC(N2C(=O)OCc3ccccc32)CC1` has Total Cell Count below 200. Can you tell?
Solution: Criterion met

Exercise: # strict comparison: is reported Total Cell Count < 200? input = `C[C@@H]1CC(=O)Nc2cccc(-c3ccc4c(c3)c(-c3cnn(C)c3)nn4C)c2N1`
Solution: Criterion met

----------
System: Fibroblast
Assay: Multiplex assay against human fibroblast
Format: toxicity, cell-based
Conditions: 12 h, 10 µM, compound concentration 10 uM, replicate 2
Non-standard residues stand in square brackets, D forms with d. Residues, ends and D or L forms follow the SMILES beside them.
I'd be grateful if you could share measured Population Membrane Permeable-Phenotype (%) for these entries.
// note: answer is a bare numeric in %

Exercise: Please look at this compound and report its Population Membrane Permeable-Phenotype (%): CCC(=O)OCC(=O)[C@@]1(OC(=O)CC)[C@@H](C)C[C@H]2[C@@H]3CCC4=CC(=O)C=C[C@]4(C)[C@@]3(Cl)[C@@H](O)C[C@@]21C [BECLOMETHASONE DIPROPIONATE]
Solution: 15

Exercise: In one line, give reported Population Membrane Permeable-Phenotype (%) of the entry CN1C[C@H](C(=O)N[C@]2(C)O[C@@]3(O)[C@@H]4CCCN4C(=O)[C@H](Cc4ccccc4)N3C2=O)C[C@@H]2c3cccc4[nH]cc(c34)C[C@H]21.CS(=O)(=O)O [DIHYDROERGOTAMINE MESYLATE] .
Solution: 2

Exercise: Hello, please tell me recorded Population Membrane Permeable-Phenotype (%) for this one: C=CCN1C[C@H](C(=O)N(CCCN(C)C)C(=O)NCC)C[C@@H]2c3cccc4[nH]cc(c34)C[C@H]21 [CABERGOLINE]
Solution: 6

Exercise: State its Population Membrane Permeable-Phenotype (%) for this compound: `Cc1cc(=O)n(C)c2cc(N3C(=O)CC[C@H](NS(=O)(=O)CC(C)C)[C@H]3c3ccc(Cl)cc3)ccc12`
Solution: 8

Exercise: Fill in Population Membrane Permeable-Phenotype (%) for record `CN1CCN(c2ccc(Nc3c4ccccc4nc4ccccc34)cc2)CC1.Cl.Cl.O`
Solution: 4

Exercise: Complete the entry with Population Membrane Permeable-Phenotype (%) for `C[C@@H]1CC(=O)Nc2cccc(-c3ccc4c(c3)c(-c3cnn(C)c3)nn4C)c2N1`
Solution: 7

Exercise: Supply recorded Population Membrane Permeable-Phenotype (%) for Cc1c(Cc2ccc3ccccc3n2)c2cc(F)ccc2n1CC(=O)O [TIMAPIPRANT] here.
Solution: 1

Exercise: Could you please provide reported Population Membrane Permeable-Phenotype (%) for `Cc1sc2c(c1C)C(c1ccc(Cl)cc1)=N[C@H](CC(=O)OC(C)(C)C)c1nnc(C)n1-2` ? Thanks!
Solution: 4

Exercise: State, in one line, measured Population Membrane Permeable-Phenotype (%) of `O=C(Nc1cc(-c2ccccc2)nn1-c1ccccc1F)c1ccc([N+](=O)[O-])cc1`
Solution: 6

Exercise: For the compound `COCCn1c(C)c(C)s/c1=N\C(=O)C1C(C)(C)C1(C)C` , report Population Membrane Permeable-Phenotype (%).
Solution: 13

Exercise: In one line, give reported Population Membrane Permeable-Phenotype (%) of the entry COc1c(Nc2ccc(S(C)(=O)=O)nc2C)ncnc1OC1CCN(C(=O)OC(C)C)CC1 [ADP-597] .
Solution: 11

Exercise: Note Population Membrane Permeable-Phenotype (%) for the compound shown: `CN1CCC(C(=O)c2cccc(NC(=O)c3c(F)cc(F)cc3F)n2)CC1`
Solution: 6

Exercise: Annotate the compound Cc1cc(NC(=O)NCCN2CCC(O)(Cc3ccccc3)CC2)c2ccccc2n1 [PALOSURAN] with its measured Population Membrane Permeable-Phenotype (%).
Solution: 3

Exercise: Consider the compound CC(C)C[C@@H]1NC(=O)[C@@H](C(C)C)NC(=O)[C@@H]2CCCN2C(=O)[C@@H](CC(=O)O)NC(=O)[C@@H](Cc2c[nH]c3ccccc23)NC1=O [BQ-123] (cyclo(L[dW][dD]P[dV])) and give its recorded Population Membrane Permeable-Phenotype (%).
Solution: 4

Exercise: Dear colleague, please send me the reported Population Membrane Permeable-Phenotype (%) for COCCCN1CCC(NC(=O)c2cc(Cl)c(N)c3c2OCC3)CC1 [PRUCALOPRIDE] when you can.
Solution: 7

Exercise: Answer with the recorded Population Membrane Permeable-Phenotype (%) for the compound listed here: COc1ccc2[nH]c(I)c(CCNC(C)=O)c2c1 [IODOMELATONIN]
Solution: 5
